biological target: cross-linking of glycated bovine serum albumin (AGE-BSA) to the rat tail tendon collagen-coated 96-well plate (Bos taurus, UniProt P02769); assay: Cross-Linking Inhibition Assay
Sequence (P02769 25-607): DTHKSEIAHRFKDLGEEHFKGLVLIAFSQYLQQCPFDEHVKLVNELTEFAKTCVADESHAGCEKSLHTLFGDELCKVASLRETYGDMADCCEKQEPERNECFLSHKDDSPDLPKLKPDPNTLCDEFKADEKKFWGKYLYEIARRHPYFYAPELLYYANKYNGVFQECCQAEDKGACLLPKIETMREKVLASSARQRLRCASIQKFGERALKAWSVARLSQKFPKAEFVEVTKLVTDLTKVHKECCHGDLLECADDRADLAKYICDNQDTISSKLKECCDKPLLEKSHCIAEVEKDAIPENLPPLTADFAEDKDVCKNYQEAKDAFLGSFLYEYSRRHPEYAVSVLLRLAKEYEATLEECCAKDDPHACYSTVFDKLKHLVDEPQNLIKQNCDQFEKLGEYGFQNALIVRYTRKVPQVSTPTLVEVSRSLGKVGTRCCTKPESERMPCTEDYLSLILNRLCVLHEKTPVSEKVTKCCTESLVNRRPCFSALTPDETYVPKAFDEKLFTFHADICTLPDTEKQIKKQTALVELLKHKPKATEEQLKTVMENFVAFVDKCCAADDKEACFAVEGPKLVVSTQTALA
Entries and their measured pIC50 follow.
Please report pIC50 as the negative decimal logarithm of the molar concentration, giving only the number.

Some solved entries appear below for comparison.
mol: NC(=O)C[n+]1ccsc1
pIC50: 3.28
--
mol: C[n+]1ccn(CC(=O)c2cc(C(C)(C)C)c(O)c(C(C)(C)C)c2)c1
pIC50: 2.35
--
mol: COC(=O)C[n+]1csc(C)c1.[Br-]
pIC50: 2.49
--
mol: Cc1csc[n+]1CC(N)=O.[Br-]
pIC50: 3.15
--
mol: NC(=O)C[n+]1csc2ccccc21.[Br-]
pIC50: 4.70
--
mol: Cc1csc[n+]1CC(=O)c1ccccc1.[Br-]
pIC50: 2.25
--
mol: COC(=O)C[n+]1csc(C)c1C.[Br-]
pIC50: 3.32
--
mol: Cc1c[n+](CC(=O)c2cc(C(C)(C)C)c(O)c(C(C)(C)C)c2)cs1
pIC50: 3.11
--
mol: COC(=O)C[n+]1ccsc1.[Br-]
pIC50: 3.60
--
mol: Cc1sc[n+](CC(N)=O)c1C.[Br-]
pIC50: 2.00

Q) Looking for the measured pIC50 of O=C(C[n+]1ccsc1)c1ccccc1.[Br-] , can you help?
A) 1.95

Q) Now try Cc1c[n+](CC(=O)c2ccccc2)cs1 .
A) 1.90

Q) And for Cc1c(CCO)sc[n+]1CC(N)=O.[Br-] ?
A) 2.85

---

molecular target: AGE-BSA previously crosslinked to the collagen (Bos taurus, UniProt P02769); construct: Bovine Serum Albumin (Type V), (BSA) Calbiochem; purchased Calbiochem (BSA Type V); Collaborative Biomedical Products (Biocoat collagen plates); test: Cross-Link Breaking Assay (sandwich enzyme immunoassay); format: biochemical; conditions: IC50 (mM) Anti-BSA, detection with anti-BSA antibody
Sequence (P02769 25-607): as above
Sequence (P02454 152-1207 partner limits assumed): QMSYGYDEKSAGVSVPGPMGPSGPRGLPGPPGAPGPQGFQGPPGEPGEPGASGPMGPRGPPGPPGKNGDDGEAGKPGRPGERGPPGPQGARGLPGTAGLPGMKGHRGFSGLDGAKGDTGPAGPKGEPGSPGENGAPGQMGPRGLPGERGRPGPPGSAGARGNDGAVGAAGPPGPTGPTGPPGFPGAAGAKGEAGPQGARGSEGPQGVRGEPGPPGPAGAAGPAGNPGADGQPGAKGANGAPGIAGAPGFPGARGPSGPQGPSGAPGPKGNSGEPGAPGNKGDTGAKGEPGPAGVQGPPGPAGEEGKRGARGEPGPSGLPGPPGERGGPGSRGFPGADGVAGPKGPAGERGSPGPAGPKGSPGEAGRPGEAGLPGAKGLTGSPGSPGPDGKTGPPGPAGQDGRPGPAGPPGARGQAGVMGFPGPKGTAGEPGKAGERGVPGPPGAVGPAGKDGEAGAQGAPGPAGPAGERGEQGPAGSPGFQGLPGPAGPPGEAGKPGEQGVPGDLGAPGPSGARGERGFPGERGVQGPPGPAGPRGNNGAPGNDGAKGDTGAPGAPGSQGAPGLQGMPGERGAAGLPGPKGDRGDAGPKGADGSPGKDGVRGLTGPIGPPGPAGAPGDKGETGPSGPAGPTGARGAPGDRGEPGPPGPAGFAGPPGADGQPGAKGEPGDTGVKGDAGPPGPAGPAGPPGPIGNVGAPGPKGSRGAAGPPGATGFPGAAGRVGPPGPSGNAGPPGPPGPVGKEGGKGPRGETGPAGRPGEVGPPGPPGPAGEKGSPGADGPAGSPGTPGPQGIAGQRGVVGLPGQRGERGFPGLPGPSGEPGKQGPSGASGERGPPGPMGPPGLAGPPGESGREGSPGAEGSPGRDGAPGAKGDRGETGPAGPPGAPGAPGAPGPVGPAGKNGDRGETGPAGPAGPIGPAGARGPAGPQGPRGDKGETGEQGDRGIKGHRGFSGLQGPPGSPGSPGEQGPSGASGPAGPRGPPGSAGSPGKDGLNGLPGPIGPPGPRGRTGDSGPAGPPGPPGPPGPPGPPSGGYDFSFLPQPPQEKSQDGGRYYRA
Sequence (P02466 86-1125 partner limits assumed): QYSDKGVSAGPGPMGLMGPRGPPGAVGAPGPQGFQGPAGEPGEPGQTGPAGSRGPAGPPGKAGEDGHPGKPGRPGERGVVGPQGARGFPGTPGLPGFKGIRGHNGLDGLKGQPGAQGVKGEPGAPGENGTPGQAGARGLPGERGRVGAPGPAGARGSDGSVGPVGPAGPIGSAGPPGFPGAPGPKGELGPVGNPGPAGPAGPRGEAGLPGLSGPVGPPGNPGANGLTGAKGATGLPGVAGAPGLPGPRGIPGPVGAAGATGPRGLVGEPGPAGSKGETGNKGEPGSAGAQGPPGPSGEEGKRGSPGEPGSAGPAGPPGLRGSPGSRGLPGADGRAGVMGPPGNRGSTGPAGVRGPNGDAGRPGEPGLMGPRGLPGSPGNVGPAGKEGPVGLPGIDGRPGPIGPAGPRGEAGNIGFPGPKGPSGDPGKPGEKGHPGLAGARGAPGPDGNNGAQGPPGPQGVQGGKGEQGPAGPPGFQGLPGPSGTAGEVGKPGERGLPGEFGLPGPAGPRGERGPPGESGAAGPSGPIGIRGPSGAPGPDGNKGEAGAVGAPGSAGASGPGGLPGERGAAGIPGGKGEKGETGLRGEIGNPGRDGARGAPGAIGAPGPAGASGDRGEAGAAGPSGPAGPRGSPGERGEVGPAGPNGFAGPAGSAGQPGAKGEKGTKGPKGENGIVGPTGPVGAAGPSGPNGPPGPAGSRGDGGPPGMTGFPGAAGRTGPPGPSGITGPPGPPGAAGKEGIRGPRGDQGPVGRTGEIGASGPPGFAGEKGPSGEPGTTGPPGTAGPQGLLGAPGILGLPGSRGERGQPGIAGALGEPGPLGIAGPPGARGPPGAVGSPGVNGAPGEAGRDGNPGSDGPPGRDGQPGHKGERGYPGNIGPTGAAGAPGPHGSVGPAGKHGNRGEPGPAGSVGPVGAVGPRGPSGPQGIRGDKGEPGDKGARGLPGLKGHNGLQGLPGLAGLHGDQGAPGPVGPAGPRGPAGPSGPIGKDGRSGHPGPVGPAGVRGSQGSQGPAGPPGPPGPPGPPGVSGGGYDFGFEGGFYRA
quantity-measured: IC50 (mM)
Dear colleague, please return just the value in mM, with no unit written.

Q) Hi! What's the reported IC50 for CC(=O)C[n+]1ccsc1.[Cl-] on AGE-BSA previously crosslinked to the collagen (Bos taurus, UniProt P02769)?
A) 0.75

---

biological target: cross-linking of glycated bovine serum albumin (AGE-BSA) to the rat tail tendon collagen-coated 96-well plate (Bos taurus); assay: Cross-Linking Inhibition Assay; settings: read-out: Relative Cross-link Inhibition (at 10 mM)
Below, each of the molecules is paired with its reported inhibition at 10000 µM value.

Examples from the recorded data:
mol: COC(=O)C[n+]1csc(CCO)c1C
inhibition at 10000 µM: 38%
--
mol: O=C(C[n+]1ccsc1)c1ccccc1.[Br-]
inhibition at 10000 µM: 34%
--
mol: CCCCN(CCCC)C(=O)C[n+]1csc(CCO)c1C.[Br-]
inhibition at 10000 µM: 0.8%

Q) Name the recorded inhibition at 10000 µM for Cc1c(CCO)sc[n+]1CC(=O)c1ccccc1.[Br-] .
A) 36%

Q) # iterate: COC(=O)C[n+]1csc2ccccc21.[Br-]
A) 35%

Q) What would you report for COC(=O)C[n+]1cscc1C.[Br-] ?
A) 58%

Q) Try this molecule next: Cc1sc[n+](CC(=O)c2ccccc2)c1C.[Br-]
A) 37%

Q) Now the same for O=C(O)C[n+]1csc2ccccc21.[Br-]
A) 16%

---

target: AGE-BSA previously crosslinked to the collagen (Bos taurus, UniProt P02769); construct: Bovine Serum Albumin (Type V), (BSA) Calbiochem; purchased Calbiochem (BSA Type V); Collaborative Biomedical Products (Biocoat collagen plates); experiment: Cross-Link Breaking Assay (sandwich enzyme immunoassay); assay type: biochemical; conditions: at 30 mM, anti-AGE antibody
quantity-measured: Breaking Anti-AGE (%)
Please reply with the bare figure in % and do not write the unit itself.

These solved cases illustrate the format of a correct answer.
mol: Cc1c(CCO)sc[n+]1CC(=O)c1ccccc1.[Br-]
Breaking Anti-AGE (%): 67
//
mol: Cc1csc[n+]1CC(=O)c1ccccc1.[Br-]
Breaking Anti-AGE (%): 68
//
mol: COC(=O)C[n+]1csc(C)c1C.[Br-]
Breaking Anti-AGE (%): 63
//
mol: O=C(O)C[n+]1csc2ccccc21.[Br-]
Breaking Anti-AGE (%): 63.7
//
mol: Nc1sc2ccccc2[n+]1N
Breaking Anti-AGE (%): 87

Q) Find the recorded Breaking Anti-AGE belonging to COC(=O)C[n+]1csc2ccccc21.[Br-] and report it.
A) 66

Q) // next record Cc1csc[n+]1CC(N)=O.[Br-]
A) 89

Q) Now give it for Cc1c(CCO)sc[n+]1Cc1ccccc1.[Cl-] too.
A) 65

Q) Input COC(=O)C[n+]1csc(C)c1.[Br-]
A) 72

Q) What would you report for COC(=O)C[n+]1cscc1C.[Br-] ?
A) 54

Q) Entry Cc1sc[n+](CC(N)=O)c1C.[Br-] please
A) 61

Q) How about O=C(C[n+]1ccsc1)c1ccc(Br)cc1.[Br-] ?
A) 76

Q) Would you kindly repeat that for COC(=O)C[n+]1ccsc1.[Br-] ?
A) 38

---

biological target: AGE-BSA previously crosslinked to the collagen (Bos taurus, UniProt P02769); construct: Bovine Serum Albumin (Type V), (BSA) Calbiochem; purchased Calbiochem (BSA Type V); Collaborative Biomedical Products (Biocoat collagen plates); experiment: Cross-Link Breaking Assay (sandwich enzyme immunoassay); assay type: biochemical; conditions: at 10 mM, anti-AGE antibody
Response field class: enum, chosen by comparing Breaking Anti-AGE against low (below 20%), intermediate (20% to below 30%), high (30% or more)

mol: CCCCN(CCCC)C(=O)C[n+]1csc(CCO)c1C.[Br-]
group-label: intermediate

Q) Returns: class label. Input: COC(=O)c1ccc(NC(=O)C[n+]2csc(CCO)c2C)cc1O
A) intermediate

Q) Item: CC(C)(C)C(=O)C[n+]1ccsc1.[Br-]
A) intermediate

Q) Entry Cc1c(CCO)sc[n+]1Cc1c(Cl)cccc1Cl.[Cl-] please
A) low

Q) Next: O=C(C[n+]1ccsc1)c1ccc2c(c1)OCCCO2.[Br-]
A) low

Q) Note, next up: Nc1ccc2c(c1)sc(N)[n+]2CC(=O)c1ccc(Br)cc1.[Br-]
A) intermediate

Q) Ok, now COc1ccc(C(=O)C[n+]2c(N)sc3cc(N)ccc32)cc1.[Br-]
A) intermediate

Q) Next compound up: C[n+]1ccn(CC(=O)c2cc(C(C)(C)C)c(O)c(C(C)(C)C)c2)c1
A) high

Q) Query Cc1c(CCO)sc[n+]1CC(=O)Nc1c(C(C)C)cccc1C(C)C.[Br-] next
A) high

Q) Field entry: Cc1c[n+](CC(=O)c2cc(C(C)(C)C)c(O)c(C(C)(C)C)c2)cs1
A) high

Q) What do we get for Cc1c(CCO)sc[n+]1CC(=O)c1ccc2ccccc2c1.[Br-] ?
A) high

Q) Lookup Cc1c(CCO)sc[n+]1Cc1ccccc1[N+](=O)[O-].[Br-]
A) low

---

molecular target: cross-linking of glycated bovine serum albumin (AGE-BSA) to the rat tail tendon collagen-coated 96-well plate (Bos taurus, UniProt P02769); assay: Cross-Linking Inhibition Assay
quantity-measured: IC50 (µM)
Expressed in µM, but write only the number.

Q) Look up IC50 for this compound: COC(=O)c1ccc(NC(=O)C[n+]2csc(CCO)c2C)cc1O
A) 1760

Q) Also check Cc1sc[n+](CC(=O)c2cc(C(C)(C)C)c(O)c(C(C)(C)C)c2)c1C
A) 160

Q) Moving on to Cc1c(CCO)sc[n+]1CC(=O)c1ccc(Br)cc1
A) 2950

Source: patent US20090088461A1
